assay: soluble on expression in E. coli; label from the status in PepcDB or PDB records

| ITEM SEQUENCE | soluble on expression in E. coli |
| --- | --- |
| MAYQSKNTDEHVTFADALLSKRYRKAQNDFLNQVERLIDWRPIRTLINKKYTKRQNAIGAPAYDVILLFKMLLLETWYNLSDCALEERINDSITFSRFLGLKMEEVSPDHSTISRFRSALTELGLMDKLLAQFNKQLSRHHISVREGVLVDASLVETPHKPNGTITIEVADDREDNRSEAEKEAEEDYQKQVVRRRKGTDEEARWVYKQKRYHYGYKKHCLTNVQGIVQKVITTAANRSDTKEFIPLLQGANIPQGTAVLADKGYACGENRSYLQTHHLQDGIMHKAQRNRALTEEEKQGNKAISPIRSTIERTFGSIRRWFHGGRCRYRGLAKTHTQNILESIAFNLYRTPGIIMSSSLG | not soluble |
| MGSDKIHHHHHHMSEKKKVLMLHGFVQSDKIFSAKTGGLRKNLKKLGYDLYYPCAPHSIDKKALFQSESEKGRDAAKEFNTSATSDEVYGWFFRNPESFNSFQIDQKVFNYLRNYVLENGPFDGVIGFSQGAGLGGYLVTDFNRILNLTDEQQPALKFFISFSGFKLEDQSYQKEYHRIIQVPSLHVRGELDEVVAESRIMALYESWPDNKRTLLVHPGAHFVPNSKPFVSQVCNWIQGITSKEGQEHNAQPEVDRKQFDKPQLEDDLLDMIDSLGKL | not soluble |
| SGEIKVSPDYNWFRGTVPLKKIIVDDDDSKIWSLYDAGPRSIRCPLIFLPPVSGTADVFFRQILALTGWGYRVIALQYPVYWDHLEFCDGFRKLLDHLQLDKVHLFGASLGGFLAQKFAEYTHKSPRVHSLILCNSFSDTSIFNQTWTANSFWLMPAFMLKKIVLGNFSSGPVDPMMADAIDFMVDRLESLGQSELASRLTLNCQNSYVEPHKIRDIPVTIMDVFDQSALSTEAKEEMYKLYPNARRAHLKTGGNFPYLCRSAEVNLYVQIHLLQFHGTKYAAIDPSMVSAEELEVQKGSLGISQEEQ | soluble |
| MTADANKSESLLCMDKAREAIKSGDTDKARRMLLKAKKLDPGQNIEFLTKKIDDMTNNTSSSSQTSSSRASEERSYAHDDHYDDPNLRNRKARSPVKKNGKTEPEPKQRSASRTPKLGVDYTSEQKELVERIRHCKDYYEILKIDKKASDDDIRKEYRKLALKLHPDKCRAPHATEAFKALGNAYAVLSDTDK | not soluble |
| MHEWALADAIVRTVLDYAQREGASRVKAVRVVLGELQDVAEDIVKFAMEQLFAGTIAEGAEIEFVEEEAVFKCRNCNYEWKLKEVKDKFDERIKEDIHFIPEVVHAFLACPKCGSHDFEVVKGRGVYVAGIKIEKEGGS | soluble |
| SLTVFQPLVPPDWKMNLRDGELYAQVAFSAAPEQGFRAGGHGVLKGGSAWMPDNQVNGVDFVLPFRFADGAWHLGTRGPVTLRIAEVINLVTAKNITADLQGRYPWTEEEPLLLTDVSVDVLGGNVLMKQLRMPQHDPALLRLNNLSSSELVSAVNPKQFAMSGAFSGALPLWLNNEKWIVKDGWLANSGPMTLRLDKDTADAVVKDNMTAGSAINWLRYMEISRSSTKINLDNLGLLTMQANITGTSRVDGKSGTVNLNYHHEENIFTLWRSLRFGDNLQAWLEQ | not soluble |

====

assay: soluble on expression in E. coli; label from the status in PepcDB or PDB records

| ITEM SEQUENCE | soluble on expression in E. coli |
| --- | --- |
| MGSDKIHHHHHHMAKEILVAYGVDIDAVAGWLGSYGGEDSPDDISRGLFAGEVGIPRLLKLFKKYHLPATWFSPGHSIETFSEQMKMIVDAGHEVGAHGYSHENPIAMTAKQEEDVLLKSVELIKDLTGKAPTGYVAPWWEFSNITNELLLKHGFKYDHSLMHNDFTPYYVRVGDSWSKIDYSLEAKDWMKPLIRGVETDLVEIPANWYLDDLPPMMFIKKSPNSFGFVSPHDIGQMWIDQFDWVYREMDYAVFSMTIHPDVSARPQVLLMHEKIIEHINKHEGVRWVTFNEIADDFLKRNPRKK | not soluble |
| MNMSQNLDFIHSAQRTIGLERDAVDSLLARIGDDFVKACELLLAGKGRVVVVGMGKSGHVGKKIAATLASTGTPSFFVHPAEASHGDMGMITKDDVVLALSNSGSTAEIVTLLPLIKRLGITLISMTGNPESPLAKAAEVNLDASVGQEACPLNLAPTSSTTVTLVLGDALAIALLEARGFTAEDFAFSHPGGALGRRLLLKVEDVMHVGEGLPQVLLGTSLTGALMEMTRKGLGMTVVLDEHGKLAGIFTDGDLRRALDRGIDVRQVTIDQVMTVHGKTVRAEILAAEALKIMEDNKIGALVVVDADDRPVGALNMHDLLRAGVM | not soluble |
| MIFEMMGEKFDKNAPIAMQSDVFPRFIINCRDGRTIFKENDTLEFELIIFDNLTELFIQYIYVFETIGQSGLGPEKARYELLSVSDGKGNIIYKNTLLTGNAPVSDIREYISSRLDYCLNNRKNISRMTLLSSVMLNSDCKNGNKKVFFFSAEAFSYSIRERLSRLNVLEKEDEEKLNELLSDKRIINGINMKLTKIDYYIQNEQKTVTFPRFKGYIVFDIERINSYLDYFFACEKLCIGQNILLGFGRYVMG | not soluble |
| MKLSQMQAGERGIILALDGLSDTVRKKLMVMGVLPNTEVVLIRRAPMGDPLQVEVRGVSIALRENIAANIDVERAQ | not soluble |
| MDRLSYAIGDKAVLNNIRVQFQPGSVTALLGPNGAGKSTLLKALCQEIPSAQGSIKLGHCQLVDWPRAELAKSLAVLPQHASLTFPFTVDEVVAMGLYPLTLSQKEGQQLVTKWLAEVGVLHLARRSYPTLSGGEKQRVQLARVLTQLSQSPFPPILLLDEPTSALDLAQQHKVLALAKNLAHKHAYTVIVVLHDLNQAARYSDRVIVLKQGEIVSEGTPNDALSIDIIRQVWDYEPEFIPAPQGDYPLIF | not soluble |
| GSPGISGGGGGIPVIDGPTQILVRDVSDTVAFVEWTPPRAKVDFILLKYGLVGGEGGKTTFRLQPPLSQYSVQALRPGSRYEVSISAVRGTNESDASSTQFTTEIDAPKNLRVGSRTATSLDLEWDNSEAEAQEYKVVYSTLAGEQYHEVLVPKGIGPTTKTTLTDLVPGTEYGVGISAVMNSKQSIPATMNARTELDSPRDLMVTASSETSISLIWTKASGPIDHYRITFTPSSGISSEVTVPRDRTSYTLTDLEPGAEYIISITAERGRQQSLESTVDAFT | soluble |
| MAEEGYKVVLNVYDLSNGLARQLSTSFLGKPIEAIWHTGVVVYGNEYFFGGGIQSLAAGRTPYGRPVRVVEMGETHIPREVFEDYLRDISPRYTAETYRLLSHNCNNFSNEVAQFLVGAGIPDYILNLPAEVMSSPMGPLIMPMIQNLESTLRTNAAPQATQFVPSSVPPPPPPQNKPGEGSSSSKQEDKAAKAKQGSAADPLGGARGKVQEEVMREFAAIMASGTLRASEAAALAMRRVMERHGNATMQQS | soluble |
| MKQPFERILREICFMVKVEGRKVLRDFGITPAQFDILQKIYFEGPKRPGELSVLLGVAKSTVTGLVKRLEADGYLTRTPDPADRRAYFLVITRKGEEVIEKVIERRENFIEKITSDLGKEKSSKILDYLKELKGVMERNFSKQ | soluble |
| MGRIKQGLDYFPLSTDFMHDRIVRRVMKREGDSAFTVLIYIMSYLYSGEGYYVRADTDFCDELSDQLFSTDNDTVRRVIRLFLEYGLFDSALYERYSILTSEDVQRQYLFITKRRSRHHICPDYCLLPEEKTTDEQPDTVAATGENVAVSPNIATASRDTATKTALIKRKEKEKKENIFPNPPFAKGGDEEEGSEGEKVAEGAGGGMREECDQRSATRKRNLTQEDIDRMQVPPDGCPRNFSGLLENLRLFRVPPAEQYAIVLKSNYGEIGGDIWKGFSVIRGSGGKIKLPGHYLLSVLNK | not soluble |
| MGSDKIHHHHHHMYEEIIEKLDLQMNRMISFLSKKMRLFFQDLEKRFTNRAILLYGPRGAGKTTFLLSMARKHGFLYVSGDEILLLDVPLHDLFQEIMKNYPGIIIDEVHLLKNWSTILKVLYDSFPDKVIWTSDSSSVLLRKGISDLSRRFVLIRMPLMSFREFIHFETGKTLRKLSSPFEVSIDYAAEALKEVDLMSLFRKYRETGTRPFYVEGNFREKLMNILQKAIYYDVPHFLGTVTENHLGVMKAIVGHLLHSKIPTINVESMCREWGVGKQKFYQLLQTMEEIELVNIVRKKRVEKPFSKGEKIFLSDPAMYYAFEGEIGNFREAFVVFALKEIGKIYAVKNEEEGDYVFEGIKIEVGGKSKKKKSSDFVIRDDVDLPVRNVIPMWMLGMLW | not soluble |
| MGSDKIHHHHHHMRKLPPLRALQVFEAAARHLHFSRAAEELCLTQSAVSHQVRGLEQHLGQTLFARRGRELALTPKGEQLFLAVQSALDGLDSLCRQLNEAESRELRLAVYSSFAVKWLIPRLGDFRRQHPGIKIHLEMVSGDPPLSDQVADMFICGEQHQRGFWQTLLRPERLIPVCSPALANALGEALVMPLRLDSLPLLSVDEADIGPDWARWAKSQAQTLTQAQLQSYSHVLLAIEAAIAGQGIALASDFIVEGDIAAGKLMALPWPALETGFGFHFCCRERRLKEPAMAAFAEWIQQQAAMAG | not soluble |
| GPLGSEEEQFALALKMSEQEAREVNNQEEKEEELLRKAIAESLNS | soluble |
